- conditionSet: basic group
Each entry below carries its recorded pKa.
Response field accepts a number only; no unit should be typed.

| compound | pKa |
| --- | --- |
| CC(C=C(c1cccs1)c1cccs1)N1CCCCCC1 (stereo not drawn) | 7.96 |
| CCc1ccc(O)c(CN(C)C)c1 | 8.51 |

Look up pKa: `CCCNC(C)C`
11

# repeat for `COc1ccnc2c1ccc1c(OC)ccnc12`
6.45

# repeat for CC(CN(C)C)[NH+](C)C (stereo not drawn)
5.4

# repeat for `CCNc1ncnc2c1cnn2C`
4.24

# repeat for `CNCc1ccccc1`
9.64

###

- conditionSet: basic group
Decision: pKa >= 6 yields Condition met, all other cases yield Condition not met.

Observe how each entry below is paired with its result.
| compound | answerLabel |
| --- | --- |
| O=Cc1cc(-c2ccccc2)nnc1NCC[NH+]1CCOCC1 | Condition not met |
| Nc1cccc(I)c1 | Condition not met |
| CCC(N)CCCl (centres undefined) | Condition met |
| [O-]c1c(Cl)cc(Cl)c(Cl)c1CN1CCOCC1 | Condition met |
| c1c(CN2CCNCC[NH2+]CC2)n[nH]c1CN1CCNCCNCC1 | Condition met |
| COC(=O)[C@@H]([NH3+])Cc1c[nH]cn1 | Condition not met |

Has `C[N-]C(=O)Oc1ccc2c(c1)[C@@]1(C)CCN(C)[C@H]1N2C` a recorded pKa greater than or equal to 6?
Condition met

# repeat for `[O-][n+]1ccc2ccccc2c1`
Condition not met

# repeat for `CNCCCc1ccccc1`
Condition met
